- Tested on: CRL7065
- TEST PROTOCOL: Antiproliferative assay (MTT), normal cell line
- Assay type: cell-based, human
- EXPERIMENTAL PARAMETERS: normal foreskin fibroblasts, concentration reducing cell proliferation by 50%, 96 h
MEASURED ATTRIBUTE: CC50 (µM)
Numbers only; they are read as µM.

# annotated cases, reported CC50 shown
O=[N+]([O-])c1cc(NC(=S)Nc2ccc(F)c(Cl)c2)ccc1Cl : 16
Cc1ccc(Cl)cc1NC(=S)Nc1ccc(Cl)c([N+](=O)[O-])c1 : 18
O=[N+]([O-])c1cc(NC(=S)Nc2ccc(Cl)c(Cl)c2)ccc1Cl : 16
O=[N+]([O-])c1cc(NC(=S)Nc2ccccc2Br)ccc1Cl : 20
O=[N+]([O-])c1cc(NC(=S)Nc2ccc(F)cc2)ccc1Cl : 22

q: Lookup: CC50 / CRL7065 / CC[C@@]1(O)C(=O)OCc2c1cc1n(c2=O)Cc2cc3ccccc3nc2-1 [Camptotecin, reference compound]
a: 0.3

q: Lookup: CC50 / CRL7065 / `O=[N+]([O-])c1cc(NC(=S)Nc2ccccc2Cl)ccc1Cl`
a: 18

q: Lookup: CC50 / CRL7065 / `N#Cc1ccc(NC(=S)Nc2ccc(Cl)c([N+](=O)[O-])c2)cc1`
a: 20

q: Lookup: CC50 / CRL7065 / `O=[N+]([O-])c1cc(NC(=S)Nc2ccc(Br)cc2)ccc1Cl`
a: 30

q: Lookup: CC50 / CRL7065 / `O=[N+]([O-])c1cc(NC(=S)Nc2ccc(I)cc2)ccc1Cl`
a: 30

q: Lookup: CC50 / CRL7065 / `Cc1ccc(NC(=S)Nc2ccc(Cl)c([N+](=O)[O-])c2)cc1Cl`
a: 16
